Every entry's value here was drawn from ChEMBL document CHEMBL1777759.

System: Trichomonas vaginalis
EXPERIMENT SUMMARY: Antiprotozoan activity against Trichomonas vaginalis GT3 trophozoites after 48 hrs
Format: functional, organism-based
SETTINGS: GT3, 48 h
REPORTED PROPERTY: IC50 (nM)

CC(=O)Oc1ccccc1C(=O)Nc1ncc([N+](=O)[O-])s1 [NITAZOXANIDE] | 68

a. O=C(Nc1ncc([N+](=O)[O-])s1)c1ccccc1O [TIZOXANIDE]
b. CC(=O)Oc1ccccc1C(=O)Nc1nc2ccc([N+](=O)[O-])cc2s1
c. O=C(Nc1nc2ccc([N+](=O)[O-])cc2s1)c1ccccc1O
Input: Place the items in sequence of falling IC50. Provide your answer as the labels ordered per the instruction.
Output: c, b, a
